# Tested on: MOLT-4 leukemia
# EXPERIMENT_NOTES: NCI tumour cell line growth inhibition, 48 h
Let's look at some molecules and their measured log10 TGI.
MEASURED_PROPERTY: log10 TGI (log10 of the value in µM)

- MOLECULE: "CN1CCN(CCCCN2c3ccccc3Sc3cc(N=[N+]=[N-])ccc32)CC1"
  TGT: "MOLT-4 leukemia"
  VAL: 0.61
- MOLECULE: "COc1cnc2c(c1)C(=O)c1c-2n(CCCNC(C)C)c(=O)c2cc(F)ccc12"
  TGT: "MOLT-4 leukemia"
  VAL: -0.57
- MOLECULE: "C/C(=N\\NC(=S)N(C)CCN(C)C(=S)N/N=C(\\C)c1ccccn1)c1ccccn1"
  TGT: "MOLT-4 leukemia"
  VAL: 1.67
- MOLECULE: "CC(C)(C)OC(=O)NC1CCC(C(C)(C)C)CC1 (stereo not given)"
  TGT: "MOLT-4 leukemia"
  VAL: 1.83
- MOLECULE: "COc1ccc(-c2c(-c3cc(OC)c(OC)c(OC)c3)noc2N)cc1"
  TGT: "MOLT-4 leukemia"
  VAL: 1.02
- MOLECULE: "CCCCCCCC(=O)OCC1OC(OC)C(NC(=O)N(CCCl)N=O)C(O)C1O (stereo not given)"
  TGT: "MOLT-4 leukemia"
  VAL: 1.56
- MOLECULE: "C=CCNS(=O)(=O)c1ncnc2nc[nH]c12"
  TGT: "MOLT-4 leukemia"
  VAL: 1.61

Entry source: PubChem BioAssay (NCI)
